The following compounds each carry a recorded pIC50 for Acetylcholinesterase (Electrophorus electricus, UniProt O42275).
Note on units: pIC50 is unitless, being -log10 of a concentration expressed in mol/L.

Query: What does the record list as pIC50 for "COc1ccc2nc(NC(=O)CN3CCN(Cc4ccc(F)cc4)CC3)sc2c1" ?
Reply: 6.61

Query: What does the record list as pIC50 for "COc1ccc2nc(NC(=O)CN3CCN(CCCN(C)C)CC3)sc2c1" ?
Reply: 6.93

Query: What does the record list as pIC50 for "COc1cc2nc(NC(=O)CN3CCN(Cc4ccc(F)cc4)CC3)sc2cc1OC" ?
Reply: 6.76

Query: What does the record list as pIC50 for "COc1cc2nc(NC(=O)CN3CCN(CCN(C)C)CC3)sc2cc1OC" ?
Reply: 7.34

Query: What does the record list as pIC50 for "COc1cc2nc(NC(=O)CN3CCN(Cc4ccc(Cl)cc4)CC3)sc2cc1OC" ?
Reply: 6.89

Query: What does the record list as pIC50 for "COc1ccc2nc(NC(=O)CN3CCN(Cc4ccc(C(F)(F)F)cc4)CC3)sc2c1" ?
Reply: 6.56

Query: What does the record list as pIC50 for "COc1ccc2nc(NC(=O)CN3CCN(CCN(C)C)CC3)sc2c1" ?
Reply: 7.02

Query: What does the record list as pIC50 for "COc1ccc(CN2CCN(CC(=O)Nc3nc4ccc(OC)cc4s3)CC2)cc1" ?
Reply: 6.40

Query: What does the record list as pIC50 for "COc1ccc2nc(NC(=O)CN3CCN(Cc4ccc(C)cc4)CC3)sc2c1" ?
Reply: 6.49
